Where do these numbers come from? They come from paper PMC3960997.

# tested target: full length TDP-43 (Homo sapiens)
# Sequence (Q13148 whole entry): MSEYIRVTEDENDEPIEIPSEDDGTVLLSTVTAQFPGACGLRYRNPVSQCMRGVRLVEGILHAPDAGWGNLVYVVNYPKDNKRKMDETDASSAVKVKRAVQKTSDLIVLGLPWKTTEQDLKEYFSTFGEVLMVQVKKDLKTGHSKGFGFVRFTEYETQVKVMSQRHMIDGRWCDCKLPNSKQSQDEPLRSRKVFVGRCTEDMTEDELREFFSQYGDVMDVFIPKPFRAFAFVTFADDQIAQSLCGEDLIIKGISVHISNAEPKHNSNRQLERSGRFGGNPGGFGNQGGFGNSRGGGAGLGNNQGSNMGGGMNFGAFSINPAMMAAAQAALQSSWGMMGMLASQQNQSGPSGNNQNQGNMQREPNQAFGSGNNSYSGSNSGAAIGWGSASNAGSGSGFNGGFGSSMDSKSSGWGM
# test protocol: Inhibition of UBQLN2 binding to full length TDP-43
measured metric: IC50 (µM)
Give bare numbers, in µM.

**Query** What IC50 value was documented for this compound, COc1ccc(-c2cc(NCCCN(C)C)c3ccccc3n2)cc1 ?
**Result** 5.5

----------
# tested target: C-terminal TDP-43 (261-414 aa) (Homo sapiens, UniProt Q13148)
measured metric: Ki (µM)
Answers are plain numbers, in µM.

**Query** What Ki value was documented for this molecule, COc1ccc(-c2cc(NCCCN(C)C)c3ccccc3n2)cc1 ?
**Result** 4.2

----------
# tested target: full length TDP-43 (Homo sapiens)
# test protocol: Inhibition of bt-TG12 binding to full length TDP-43
measured metric: pIC50
One number for each entry, as −log10 of the molar value.

**Query** What pIC50 value was documented for this compound, COc1ccc(-c2cc(NCCCN(C)C)c3ccccc3n2)cc1 [AAQ1] ?
**Result** 6.00
